TARGET: human α-synuclein pre-formed fibrils (Human Alpha Synuclein Pre-formed Fibrils Type II, StressMarq SPR-317) (human, UniProt P37840 1-140)
EXPERIMENT_DESCRIPTION: SPR Biacore T200, antibody captured on Protein A chip, α-syn PFF analyte, 1:1 model
Reported Kd values for a set of binders
Just the number in nM, nothing appended.

| BINDER | Kd / nM |
| --- | --- |
| hu1E4(V8_VL4) (antibody, human IgG1, V domains shown, Monospecific; human IgG1 and kappa constant regions) VH: QVQLVQSGAEVKKPGASVKVSCKASGYTFTNYLIEWVRQAPGQGLEWMGVINPGSGGTNYNEKFKGRVTMTADKSISTAYMELSRLRSDDTAVYYCASGNYDTYWGQGTLVTVSS VL: DVVMTQSPLSLPVTLGQPASISCRSSQSLVHSNGNTYLHWYQQRPGQSPRLLIYKVSNRFSGVPDRFSGSGSGTDFTLKISRVEAEDVGVYYCSQSTHVPRTFGGGTKVEIK | 0.051 |
| chimeric 1E4 antibody (antibody, V domains shown, VH and VL of mouse 1E4 with human IgG1 and kappa constant regions; also called ch1E4; Ch1E4) VH: QVQLQQSGAELVRPGTSVKVSCKASGYAFTNYLIEWVKQRPGQGLEWIGVINPGSGGTNYNEKFKGKATLTADKSSSTAYMQLSSLTSDDSAVYFCASGNYDTYWGQGTLVTVSA VL: DVVMTQTPLSLPVSLGDQASISCRSSQSLVHSNGNTYLHWYLQKPGQSPKLLIYKVSNRFSGVPDRFSGSGSGTDFTLKISRVEAEDLGVYFCSQSTHVPRTFGGGTKLEIK | 0.0519 |
| hu1E4(V1_VL1) (antibody, human IgG1, V domains shown, Monospecific; fused to human IgG1 and kappa constant regions; also called humanized 1E4(V1_VL1); hu1E4(Ver.1_VL1)) VH: QVQLVQSGAEVKKPGASVKVSCKASGYTFTNYLIEWVRQAPGQGLEWMGVINPGSGGTNYNEKFKGRVTMTRDTSISTAYMELSRLRSDDTAVYYCASGNYDTYWGQGTLVTVSS VL: DIVMTQTPLSLSVTPGQPASISCRSSQSLVHSNGNTYLHWYLQKPGQSPQLLIYKVSNRFSGVPDRFSGSGSGTDFTLKISRVEAEDVGVYYCSQSTHVPRTFGQGTKLEIK | 0.0276 |

Now for a further binder.
Sample hu1E4(V9_VL4) (antibody, human IgG1, V domains shown, Monospecific; human IgG1 and kappa constant regions) VH: QVQLVQSGAEVKKPGASVKVSCKASGYTFTNYLIEWVRQAPGQGLEWIGVINPGSGGTNYNEKFKGRATLTADKSISTAYMELSRLRSDDTAVYYCASGNYDTYWGQGTLVTVSS VL: DVVMTQSPLSLPVTLGQPASISCRSSQSLVHSNGNTYLHWYQQRPGQSPRLLIYKVSNRFSGVPDRFSGSGSGTDFTLKISRVEAEDVGVYYCSQSTHVPRTFGGGTKVEIK ; Kd observed: 0.096

// data source = patent US20220380446A1
